Biological target: T1, cynomolgus monkey IL-33 expressed with a C-terminal hexahistidine tag (cynomolgus monkey)
T1 construct: also called MfIL-33-6His; Mf-IL-33-6His
T1 chain: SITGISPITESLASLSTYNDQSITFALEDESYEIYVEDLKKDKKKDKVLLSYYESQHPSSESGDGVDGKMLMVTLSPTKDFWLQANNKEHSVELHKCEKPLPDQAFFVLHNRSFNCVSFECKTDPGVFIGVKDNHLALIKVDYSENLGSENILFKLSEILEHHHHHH
Experiment: SPR 25C pH7.4, mAb captured
Method: Equilibrium dissociation constants (KD values) for IL-33 binding to purified anti-IL-33 monoclonal antibodies were determined using a real-time surface plasmon resonance biosensor using a Biacore 4000 instrument. […] Association of either hIL-33 or MfIL-33-6His to the captured monoclonal antibody was monitored for 4 minutes and their dissociation in ABS-ET running buffer was monitored for 10 minutes. […]
experimental endpoint: koff (s⁻¹)
Quick note: give the figure in s⁻¹, leave out the unit.

Record summary for H4H9670P (antibody, V domains shown, Human IgG4 Fc (H4H)) VH: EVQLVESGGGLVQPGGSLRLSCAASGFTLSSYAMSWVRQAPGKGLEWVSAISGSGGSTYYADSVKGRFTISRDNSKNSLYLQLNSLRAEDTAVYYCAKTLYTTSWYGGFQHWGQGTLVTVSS VL: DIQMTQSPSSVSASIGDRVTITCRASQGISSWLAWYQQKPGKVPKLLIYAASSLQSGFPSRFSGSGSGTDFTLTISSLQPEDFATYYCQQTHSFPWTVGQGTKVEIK : reported koff = 0.0021
